Form field: OD450 (one value per entry).
# SYSTEM_NAME: T1, human MSLN-R1-his protein (human, UniProt Q13421 296-390)
# T1 construct: Made in HEK293E cells, purified on nickel column; also called hMSLN-R1-his; human MSLN-R1 protein; not shown: His tag
# T1 chain: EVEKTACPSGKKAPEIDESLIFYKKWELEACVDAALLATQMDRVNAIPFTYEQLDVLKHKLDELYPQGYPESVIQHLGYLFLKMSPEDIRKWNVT
# METHOD: ELISA, coated antigen, antibody 0.02 nM
Keep it simple and answer with nothing but the number.

Worked examples follow.
# BINDER, EXPERIMENTAL_RESULT
data = [
    ("S009-F7.53.2 chimeric antibody (antibody, human IgG1, kappa, V domains shown, Human-murine chimeric antibody, human IgG1/kappa constant regions) VH: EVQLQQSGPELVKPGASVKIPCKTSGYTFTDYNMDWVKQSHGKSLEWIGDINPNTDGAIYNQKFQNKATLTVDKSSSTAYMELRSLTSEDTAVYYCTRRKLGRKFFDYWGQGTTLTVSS VL: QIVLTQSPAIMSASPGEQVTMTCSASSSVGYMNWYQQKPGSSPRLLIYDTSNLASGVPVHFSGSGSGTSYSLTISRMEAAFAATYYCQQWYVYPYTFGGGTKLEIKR", 0.04),
    ("S009-F7.61.21 chimeric antibody (antibody, human IgG1, kappa, V domains shown, Human-murine chimeric antibody, human IgG1/kappa constant regions) VH: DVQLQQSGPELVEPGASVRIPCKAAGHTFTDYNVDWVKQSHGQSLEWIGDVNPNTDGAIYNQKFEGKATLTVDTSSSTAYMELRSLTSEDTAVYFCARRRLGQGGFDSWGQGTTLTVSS VL: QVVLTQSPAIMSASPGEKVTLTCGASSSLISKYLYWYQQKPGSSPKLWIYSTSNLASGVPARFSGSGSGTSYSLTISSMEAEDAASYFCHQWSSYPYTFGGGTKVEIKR", 0.05),
]

Okay, next one:
Q. Returns the measured OD450 for the input binder. Input: S009-F7.12.13 chimeric antibody (antibody, human IgG1, kappa, V domains shown, Human-murine chimeric antibody, human IgG1/kappa constant regions) VH: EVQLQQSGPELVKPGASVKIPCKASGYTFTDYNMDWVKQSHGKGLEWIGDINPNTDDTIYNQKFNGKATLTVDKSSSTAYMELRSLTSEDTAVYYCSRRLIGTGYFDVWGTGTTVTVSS VL: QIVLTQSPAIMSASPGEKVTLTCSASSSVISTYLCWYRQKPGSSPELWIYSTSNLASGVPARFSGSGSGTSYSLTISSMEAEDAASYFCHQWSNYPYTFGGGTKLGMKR
A. 0.05
